System: U-251
assay_notes: NCI tumour cell line growth inhibition, 48 h
Activity calls are given as the source filed them. No stated cut-off is given here; in the data, active = GI50 up to about 1.1 µM and inactive = higher.
As shown below, each of these compounds has a reported GI50 value.

In: Name the recorded GI50 of the item "COc1ccccc1-c1cc(=O)c2cc(C)c(C)c(C(=O)O)c2o1" in your answer.
Out: > 100 µM (inactive)

In: Name the recorded GI50 of the item Cc1cc(S(=O)(=O)O)c(NC(=O)C(=O)C2C=CCS2(=O)=O)cc1Cl (stereo not given) in your answer.
Out: > 100 µM (inactive)

In: Name the recorded GI50 of the item CCOC(=O)C1(C)CCc2sc(N)c(C#N)c21 (stereo not given) in your answer.
Out: > 100 µM (inactive)

In: Name the recorded GI50 of the item "O=c1cc(NNc2cccc(F)c2)[nH]c(=O)[nH]1" in your answer.
Out: 17.2 µM (inactive)

In: Name the recorded GI50 of the item "COC(=O)CN1Cc2cc(C)cc(c2O)CN(CC(=O)OC)Cc2cc(C)cc(c2O)CN(CC(=O)OC)Cc2cc(C)cc(c2O)CN(CC(=O)OC)Cc2cc(C)cc(c2O)C1" in your answer.
Out: 14 µM (inactive)

In: Name the recorded GI50 of the item "O=C1c2ccccc2S[C@@H](O)[C@@H]2CCCN12" in your answer.
Out: > 100 µM (inactive)

In: Name the recorded GI50 of the item "O=P(O)(O)CN1CCNCCN(CP(=O)(O)O)CCNCC1" in your answer.
Out: > 24.4 µM (inactive)
